Assign mortality at 200 ppm to each entry below.
# System: Green Peach Aphid (GPA) (Myzus persicae) (MYZUPE)
# assay.procedure: Bioassay for Green Peach Aphid (GPA), foliar spray on cabbage seedlings
# Type: in vivo
# applied.conditions: 72 h, 200 ppm foliar spray on cabbage seedlings, graded after three days, Abbott corrected % control, read-out: GPA 200 ppm, % Control (or Mortality) rating

Suppose we examine the compound CCN(C(=O)CC(C)=O)c1cn(-c2cccnc2)nc1Cl ; what mortality at 200 ppm value has been reported?
80 to 100%

Suppose we examine the compound CCN(C(=O)CCN1CCSC1=O)c1cn(-c2cccnc2)nc1Cl ; what mortality at 200 ppm value has been reported?
0 to 80%

Suppose we examine the compound CCOC(=O)N(C)CCC(=O)N(CC)c1cn(-c2cccnc2)nc1Cl ; what mortality at 200 ppm value has been reported?
80 to 100%

Suppose we examine the compound CN(C(=O)CN1CCCCCC1=O)c1cn(-c2cccnc2)nc1Cl ; what mortality at 200 ppm value has been reported?
0 to 80%

Suppose we examine the compound CN(C(=O)CCN1CCCC1=O)c1cn(-c2cccnc2)nc1Cl ; what mortality at 200 ppm value has been reported?
80 to 100%

Suppose we examine the compound CCN(C(=O)CCCC1CN(CC2CC2(F)F)C1=O)c1cn(-c2cccnc2)nc1Cl (stereo not drawn) ; what mortality at 200 ppm value has been reported?
80 to 100%

Suppose we examine the compound CCN(C(=O)CCC(=O)NCC1CC1)c1cn(-c2cccnc2)nc1Cl ; what mortality at 200 ppm value has been reported?
80 to 100%

Suppose we examine the compound CCN(C(=O)C(C)C/C=N/OCCC1CC1(F)F)c1cn(-c2cccnc2)nc1Cl (stereo not drawn) ; what mortality at 200 ppm value has been reported?
80 to 100%

Suppose we examine the compound CCN(C(=O)CCNC(=O)CC#N)c1cn(-c2cccnc2)nc1Cl ; what mortality at 200 ppm value has been reported?
0 to 80%

Suppose we examine the compound CCN(C(=O)CC/C(C)=N/O)c1cn(-c2cccnc2)nc1Cl ; what mortality at 200 ppm value has been reported?
0 to 80%

Suppose we examine the compound CC(=O)CCC(=O)N(C)c1cn(-c2cccnc2)nc1Cl ; what mortality at 200 ppm value has been reported?
0 to 80%

Suppose we examine the compound CCN(C(=O)CCN(CC(F)F)C(=O)CC1CC1)c1cn(-c2cccnc2)nc1Cl ; what mortality at 200 ppm value has been reported?
80 to 100%

Suppose we examine the compound CCN(C(=O)C(C)OC(=O)CC(F)(F)F)c1cn(-c2cccnc2)nc1Cl (stereo not drawn) ; what mortality at 200 ppm value has been reported?
80 to 100%

Suppose we examine the compound CCN(C(=O)CC1CN(C)C1=O)c1cn(-c2cccnc2)nc1Cl (stereo not drawn) ; what mortality at 200 ppm value has been reported?
80 to 100%

Suppose we examine the compound CCN(C(=O)C1CCN(C(=O)OC(C)(C)C)C1)c1cn(-c2cccnc2)nc1Cl (stereo not drawn) ; what mortality at 200 ppm value has been reported?
0 to 80%

Suppose we examine the compound CCN(C(=O)CNC(=O)CC(F)(F)F)c1cn(-c2cccnc2)nc1Cl ; what mortality at 200 ppm value has been reported?
80 to 100%

Suppose we examine the compound CCN(C(=O)CCC(=O)N(C)Cc1ccc(F)cc1)c1cn(-c2cccnc2)nc1Cl ; what mortality at 200 ppm value has been reported?
80 to 100%

Suppose we examine the compound CCN(C(=O)CCC(=O)N(C)Cc1ccco1)c1cn(-c2cccnc2)nc1Cl ; what mortality at 200 ppm value has been reported?
0 to 80%

These entries and their values trace back to patent US9523100B2.
